The measured values listed here are drawn from the supplement of paper PMC13380429.

Please go through the items and note down their cell viability.
system: Calu-3; assay: cell viability relative to DMSO; higher = less toxic; conditions: 72 h; 1 nM

| compound | target-or-system | cell viability |
| --- | --- | --- |
| Clc1cccc(Cl)c1NC1=NCCN1 [clonidine] | Calu-3 | 98.4% |
| CCC[C@H](NC(=O)/C(C#N)=C/c1cccc(Br)n1)c1ccccc1 [WP1130] | Calu-3 | 100% |
| Cc1ccc(OC[C@@H](O)[C@H](C)NC(C)C)c2c1CCC2 (racemic) [ICI-118,551] | Calu-3 | 121% |
| COc1ccccc1N1CCN(CCCCN2C(=O)CCC2=O)CC1 [MM77] | Calu-3 | 104% |

Lab note: each compound below needs its cell viability filled in.
1. Cc1cc(C)nc(SCC(=O)Nc2ncc(Cc3cccc4ccccc34)s2)n1 [SirReal-2]
2. CNC(=O)c1ccc2cc([C@@]3(O)CCn4cncc43)ccc2c1 [orteronel]

97%
102%

Field: cell viability. Fill in for each record below.
1. CC1(C)S[C@@H]2[C@H](NC(=O)[C@H](NC(=O)N3CCNC3=O)c3ccccc3)C(=O)N2[C@H]1C(=O)O [azlocillin]
2. CCN(CC)CCCCNc1ncc2cc(-c3cc(OC)cc(OC)c3)c(NC(=O)NC(C)(C)C)nc2n1
3. CN1CCC(=C2c3ccccc3Sc3ccccc32)CC1 [pimethixene]
4. COc1cc(C(=O)N2CCOCC2)cc(OC)c1OC [trimetozine]

1. 97.1%
2. 98.9%
3. 103%
4. 98.9%

Please give cell viability, item by item, for the list that follows.
1. CCN(CC)S(=O)(=O)c1ccc(C(=O)O)cc1 [etebenecid]
2. C[C@](O)(COc1ccc(C#N)cc1)C(=O)Nc1ccc(C#N)c(C(F)(F)F)c1 [ostarine]
3. FC(F)(F)Oc1ccc2nc(-c3ccc(OCCOCCOc4ccc(-c5nc6ccc(OC(F)(F)F)cc6[nH]5)nc4)cn3)[nH]c2c1 [AI-10-49]
4. Nc1nc(OCc2cc(Br)cs2)c2[nH]cnc2n1 [lomeguatrib]
5. N=C(N)S/C=C\C(=O)O [ZAPA]
6. OCc1cc([C@@H](O)CNCCCCCCOCCOCc2c(Cl)cccc2Cl)ccc1O [vilanterol]
7. COC(=O)c1ccc2c(c1)NC(=O)/C2=C(\Nc1ccc(N(C)C(=O)CN2CCN(C)CC2)cc1)c1ccccc1 [nintedanib]

110%
109%
109%
106%
83%
99%
106%

Each compound below has a reported value. Please supply its cell viability.
1. Cc1cc(Nc2ncc(Cl)c(Nc3ccccc3S(=O)(=O)C(C)C)n2)c(OC(C)C)cc1C1CCNCC1 [ceritinib]
2. CC1=CC(=C(c2ccc(N)cc2)c2ccc(N)cc2)C=CC1=N [basic-fuchsin]
3. NCCc1cc(O)c(O)cc1O [oxidopamine]
4. O=C(Nc1ccc(C(=O)O)c(O)c1)c1ccccc1 [benzoylpas]
5. C1=C2CCCN[C@H]2[C@@H]2C[C@H]1[C@H]1CCCCN1C2 [aloperine]
6. COCc1nnc(N2CC(Oc3ccc(F)cc3Cl)C2)n1-c1ccc(OC)nc1

1. 102%
2. 92.3%
3. 91.1%
4. 94.1%
5. 91.1%
6. 92.8%
